Where do these numbers come from? They come from ChEMBL document CHEMBL1135657.

biological target: Acetylcholinesterase (Homo sapiens, UniProt P22303)
Sequence (P22303 whole entry): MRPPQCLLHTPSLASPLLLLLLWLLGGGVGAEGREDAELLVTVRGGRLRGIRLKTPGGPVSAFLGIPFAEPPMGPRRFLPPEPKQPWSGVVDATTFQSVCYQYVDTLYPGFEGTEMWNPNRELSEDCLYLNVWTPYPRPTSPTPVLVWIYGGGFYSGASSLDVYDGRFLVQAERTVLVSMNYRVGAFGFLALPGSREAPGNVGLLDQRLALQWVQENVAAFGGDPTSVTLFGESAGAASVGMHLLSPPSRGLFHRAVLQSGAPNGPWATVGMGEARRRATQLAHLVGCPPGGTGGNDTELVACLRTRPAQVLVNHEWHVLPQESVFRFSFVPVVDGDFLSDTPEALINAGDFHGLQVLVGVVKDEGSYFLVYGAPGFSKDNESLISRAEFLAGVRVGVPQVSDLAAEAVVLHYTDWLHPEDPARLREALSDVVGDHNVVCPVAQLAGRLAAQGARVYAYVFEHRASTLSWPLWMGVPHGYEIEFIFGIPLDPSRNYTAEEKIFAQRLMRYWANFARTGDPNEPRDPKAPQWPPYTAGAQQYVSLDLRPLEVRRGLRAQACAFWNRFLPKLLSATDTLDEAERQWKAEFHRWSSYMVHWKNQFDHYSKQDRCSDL
Measured metric: IC50 (nM)
Only the number, expressed in nM, is required.

Task: May I ask what IC50 has been recorded for C#CCNC1CCc2c(OC(=O)N(C)C)cccc21 (stereo unspecified) ?
Result: 53

---

target: Acetylcholinesterase (Homo sapiens); assay: In vitro inhibitory concentration against purified Acetylcholinesterase of human erythrocytes; value ranges from 2.2-10.1
Measured metric: pIC50
Value format note: pIC50 is -log10 of concentration (mol/L); just state the number.

Task: Need pIC50, item C#CCNC1CCc2ccc(OC(=O)N(C)C)cc2C1 (stereo unspecified)
Result: 5.39

---

biological target: Butyrylcholinesterase (Equus caballus); test: In vitro inhibitory concentration against Butyrylcholinesterase of horse serum; value ranges from […]
Sequence (Q9N1N9 whole entry): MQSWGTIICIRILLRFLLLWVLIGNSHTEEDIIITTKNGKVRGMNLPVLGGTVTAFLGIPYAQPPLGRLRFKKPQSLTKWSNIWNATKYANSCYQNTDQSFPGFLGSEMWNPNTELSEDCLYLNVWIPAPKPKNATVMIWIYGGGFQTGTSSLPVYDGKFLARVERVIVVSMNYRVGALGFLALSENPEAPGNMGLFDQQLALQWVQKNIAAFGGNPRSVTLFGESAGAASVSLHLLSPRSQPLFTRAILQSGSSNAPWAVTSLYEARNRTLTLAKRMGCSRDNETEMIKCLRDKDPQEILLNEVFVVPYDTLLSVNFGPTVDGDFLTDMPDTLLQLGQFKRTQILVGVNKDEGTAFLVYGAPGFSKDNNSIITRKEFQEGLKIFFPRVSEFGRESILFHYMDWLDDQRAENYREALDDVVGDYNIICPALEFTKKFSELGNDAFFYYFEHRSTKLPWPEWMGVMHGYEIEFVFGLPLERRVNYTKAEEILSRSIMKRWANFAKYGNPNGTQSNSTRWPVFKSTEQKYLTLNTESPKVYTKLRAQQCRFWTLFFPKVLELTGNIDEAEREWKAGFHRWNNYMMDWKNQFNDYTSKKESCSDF
Measured metric: pIC50
Friendly reminder that pIC50 comes from taking -log10 of the concentration in mol/L.

Task: # pIC50 lookup, item CCN(C)C(=O)Oc1ccc2c(c1)C(N)CCC2 (stereo unspecified)
Result: 5.27
